Tested on: pERK in HCT116 cells
Test: Inhibition of KRas phosphorylation of ERK (Cisbio HTRF pERK assay)
Conditions: Homo sapiens, HCT-116, read-out: Inhibition (HTRF IC50) of KRas-mediated Phosphorylation of ERK, HCT116
Readout type: IC50 (nM)
State the answer as a number, implicitly in nM.

Reference set, count: 6
- Molecule: "Oc1cc(-c2ncc3c(N4CC5CC(O)C(C5)C4)nc(OC[C@@]45CCCN4C[C@H](F)C5)nc3c2F)c2c(Cl)c(F)ccc2c1 (stereo partly shown)"
  IC50 / nM: 70
- Molecule: "C#Cc1c(F)ccc2cc(O)cc(-c3ncc4c(N5CCC[C@@](C)(O)C5)nc(OC[C@@]56CCCN5C[C@H](F)C6)nc4c3F)c12"
  IC50 / nM: 33
- Molecule: "CCc1c(F)ccc2cc(O)cc(-c3ncc4c(NCc5cccnc5N)nc(OC[C@@]56CCCN5C[C@H](F)C6)nc4c3F)c12"
  IC50 / nM: 243
- Molecule: "CCc1c(F)ccc2cc(O)cc(-c3ncc4c(N5CCCC6(CCSC6)C5)nc(OC[C@@]56CCCN5C[C@H](F)C6)nc4c3F)c12 (stereo partly shown)"
  IC50 / nM: 275
- Molecule: "CCc1c(F)ccc2cc(O)cc(-c3ncc4c(NCC5CC(=O)N5)nc(OC[C@@]56CCCN5C[C@H](F)C6)nc4c3F)c12 (single isomer, unassigned)"
  IC50 / nM: 3840
- Molecule: "C#Cc1c(F)ccc2cc(O)cc(-c3ncc4c(N5CCCC6(CC(=O)N6)C5)nc(OC[C@@]56CCCN5C[C@H](F)C6)nc4c3F)c12 (stereo partly shown)"
  IC50 / nM: 2210

Exercise: Fill in the recorded IC50 for this molecule, with pERK in HCT116 cells as test system: CCc1c(F)ccc2cc(O)cc(-c3ncc4c(N5CCCC6(CC(=O)NC6=O)C5)nc(OC[C@@]56CCCN5C[C@H](F)C6)nc4c3F)c12 (stereo partly shown)
Key: 60

Exercise: Fill in the recorded IC50 for this molecule, with pERK in HCT116 cells as test system: `CCc1c(F)ccc2cc(O)cc(-c3ncc4c(N5CCOC[C@@](C)(O)C5)nc(OCC5(CN(C)C)CC5)nc4c3F)c12`
Key: 231

Exercise: Fill in the recorded IC50 for this molecule, with pERK in HCT116 cells as test system: `CCNC(=O)c1cc2n(n1)CCCN(c1nc(OC[C@@]34CCCN3C[C@H](F)C4)nc3c(F)c(-c4cc(O)cc5ccc(F)c(CC)c45)ncc13)C2`
Key: 767

Exercise: Fill in the recorded IC50 for this molecule, with pERK in HCT116 cells as test system: `CCc1c(F)ccc2cc(O)cc(-c3ncc4c(N5CCC[C@@](C)(O)C5)nc(OC[C@]56CCCN5[C@@H](COC(=O)N(C)C)CC6)nc4c3F)c12`
Key: 763

Exercise: Fill in the recorded IC50 for this molecule, with pERK in HCT116 cells as test system: O=C1CC2(CCCN(c3nc(OC[C@@]45CCCN4C[C@H](F)C5)nc4c(F)c(-c5cc(O)cc6ccc(F)c(F)c56)ncc34)C2)N1 (stereo partly shown)
Key: 1510

###

# key: entry, value: IC50
Target: KRas G12V (Homo sapiens, UniProt P01116, G12V);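 also: KRas binding measured by TR-FRET displacement at room temperature, IC50 fitted from percent of control values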
Sequence (P01116 1-169 isoform P01116-2 G12V): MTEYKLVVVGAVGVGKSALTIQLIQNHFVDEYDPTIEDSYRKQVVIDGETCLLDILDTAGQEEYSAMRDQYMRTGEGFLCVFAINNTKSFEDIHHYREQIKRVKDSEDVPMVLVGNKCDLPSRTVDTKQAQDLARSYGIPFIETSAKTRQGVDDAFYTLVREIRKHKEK
Experiment: biochemical

- Compound: "C#Cc1c(F)ccc2cc(O)cc(-c3ncc4c(N5C[C@@H]6C[C@H](C5)[C@H](O)C6)nc(OC[C@@]56CCCN5C[C@H](F)C6)nc4c3F)c12"
  Target under test: "KRas G12V (Homo sapiens, UniProt P01116, G12V)"
  IC50: "≤ 2 nM"

Exercise: Name the reported IC50 value associated with the compound C#Cc1c(F)ccc2cc(O)cc(-c3ncc4c(N5CC6C(=O)NC(=O)C6C5)nc(OC[C@@]56CCCN5C[C@H](F)C6)nc4c3F)c12 (stereo partly drawn)
Key: ≤ 2 nM

Exercise: Name the reported IC50 value associated with the compound `CCc1c(F)ccc2cc(O)cc(-c3ncc4c(N5CCCSCC5)nc(OC[C@@]56CCCN5C[C@H](F)C6)nc4c3F)c12`
Key: ≤ 2 nM

###

Target: KRas G12D (Homo sapiens, UniProt P01116, G12D);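 also: TR-FRET displacement binding assay on KRas, read after a one-hour incubation at room temperature, IC50 fitted from percent-of-control values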
Sequence (P01116 1-169 isoform P01116-2 G12D): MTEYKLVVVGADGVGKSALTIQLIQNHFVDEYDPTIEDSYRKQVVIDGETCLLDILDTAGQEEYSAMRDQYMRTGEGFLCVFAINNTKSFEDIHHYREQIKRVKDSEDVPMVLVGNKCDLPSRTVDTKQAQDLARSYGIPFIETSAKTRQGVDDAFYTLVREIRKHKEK
Assay: biochemical
pIC50: −log10 of the molar value.
Readout type: pIC50

Reference set, count: 3
- Molecule: "CCc1c(F)ccc2cc(O)cc(-c3ncc4c(NCCC5CCC(=O)N5)nc(OC[C@@]56CCCN5C[C@H](F)C6)nc4c3F)c12 (stereo partly shown)"
  pIC50: "≥ 8.70"
- Molecule: "CN(C)C(=O)c1cc2n(n1)CCCN(c1nc(OC[C@@]34CCCN3C[C@H](F)C4)nc3c(F)c(-c4cc(O)cc5ccc(F)c(Cl)c45)ncc13)C2"
  pIC50: "≥ 8.70"
- Molecule: "CCc1c(F)ccc2cc(O)cc(-c3ncc4c(N5CCC[C@@](C)(O)C5)nc(OCC5(CN6CCCC6)CC5)nc4c3F)c12"
  pIC50: "≥ 8.70"

Exercise: Name the reported pIC50 value associated with the molecule `Fc1c(-c2cccc3cccc(F)c23)ncc2c(N3CCSCC3)nc(OCC34CCCN3CCC4)nc12`
Key: 4.41

Exercise: Name the reported pIC50 value associated with the molecule O=S1(=O)NCC2(CCCN(c3nc(OC[C@@]45CCCN4C[C@H](F)C5)nc4c(F)c(-c5cc(O)cc6ccc(F)c(Cl)c56)ncc34)C2)N1 (stereo partly shown)
Key: ≥ 8.70

Exercise: Name the reported pIC50 value associated with the molecule `CCc1c(F)ccc2cc(O)cc(-c3ncc4c(N5CCC[C@@]6(CNC(=O)N6)C5)nc(OC[C@@]56CCCN5C[C@H](F)C6)nc4c3F)c12`
Key: ≥ 8.70

Exercise: Name the reported pIC50 value associated with the molecule CN(C)CC1(COc2nc(N3CCCC4(CNS(=O)(=O)N4)C3)c3cnc(-c4cc(O)cc5ccc(F)c(Cl)c45)c(F)c3n2)CC1 (stereo not shown)
Key: ≥ 8.70

Exercise: Name the reported pIC50 value associated with the molecule `CCc1c(F)ccc2cc(O)cc(-c3ncc4c(NCc5cc(C(N)=O)nn5C)nc(OC[C@@]56CCCN5C[C@H](F)C6)nc4c3F)c12`
Key: ≥ 8.70

Exercise: Name the reported pIC50 value associated with the molecule `C#Cc1c(F)ccc2cc(O)cc(-c3ncc4c(N5CCCn6nc(C(=O)N(C)C)cc6C5)nc(OC[C@@]56CCCN5C[C@H](F)C6)nc4c3F)c12`
Key: ≥ 8.70

Exercise: Name the reported pIC50 value associated with the molecule `N#Cc1ccccc1N1CCN(c2nc(OCC34CCCN3CCC4)nc3c(F)c(-c4cccc5cccc(F)c45)ncc23)CC1`
Key: ≤ 4.00

###

# key: entry, value: IC50
Molecular target: KRas G12S (Homo sapiens, UniProt P01116, G12S);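 also: TR-FRET displacement binding to KRas, read after one hour incubation at room temperature, IC50 from four-parameter fit of percent of control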
Sequence (P01116 1-169 isoform P01116-2 G12S): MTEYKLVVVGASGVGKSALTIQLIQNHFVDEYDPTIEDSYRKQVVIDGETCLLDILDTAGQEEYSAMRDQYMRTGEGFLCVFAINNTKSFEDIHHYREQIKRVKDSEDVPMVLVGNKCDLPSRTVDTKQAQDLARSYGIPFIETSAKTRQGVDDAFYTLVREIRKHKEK
Test: biochemical
State the answer as a number, implicitly in µM.

Reference set, count: 8
- Compound: "Fc1c(-c2cccc3cccc(F)c23)ncc2c(NCc3cn[nH]c3)nc(OCC34CCCN3CCC4)nc12 [Example 93]"
  IC50, µM: 10.2
- Compound: "Fc1c(-c2cccc3cccc(F)c23)ncc2c(NCc3c[nH]c4ncccc34)nc(OCC34CCCN3CCC4)nc12 [Example 94]"
  IC50, µM: 0.368
- Compound: "Fc1c(-c2cccc3cccc(F)c23)ncc2c(Nc3ccc4[nH]ncc4c3)nc(OCC34CCCN3CCC4)nc12 [Example 100]"
  IC50, µM: 28.8
- Compound: "Fc1c(-c2cccc3cccc(F)c23)ncc2c(NCc3ccc4[nH]cnc4c3)nc(OCC34CCCN3CCC4)nc12 [Example 80]"
  IC50, µM: 2.57
- Compound: "O=C1CC2(CCCN(c3nc(OCC45CCCN4CCC5)nc4c(F)c(-c5cccc6cccc(C(F)F)c56)ncc34)C2)N1 (stereo not drawn) [Example 466]"
  IC50, µM: 2.14
- Compound: "CNc1cc2n(n1)CCCN(c1nc(OCC34CCCN3CCC4)nc3c(F)c(-c4cccc5cccc(F)c45)ncc13)C2 [Example 263]"
  IC50, µM: 3.55
- Compound: "Fc1c(-c2cccc3cccc(F)c23)ncc2c(NCCCc3cccnc3)nc(OCC34CCCN3CCC4)nc12 [Example 124]"
  IC50, µM: 3.87
- Compound: "O=C1CC2(CCN(c3nc(OCC45CCCN4CCC5)nc4c(F)c(-c5cccc6cccc(F)c56)ncc34)CC2)N1 [Example 77]"
  IC50, µM: 1.17

Exercise: Fill in the recorded IC50 for this compound, with KRas G12S (Homo sapiens, UniProt P01116, G12S) as test system: Fc1c(-c2cccc3cccc(F)c23)ncc2c(N3CCCC4(COC4)C3)nc(OCC34CCCN3CCC4)nc12 [Example 220]
Key: 6.31

Exercise: Fill in the recorded IC50 for this compound, with KRas G12S (Homo sapiens, UniProt P01116, G12S) as test system: Fc1c(-c2cccc3cccc(F)c23)ncc2c(N3CC(c4ccncc4)C3)nc(OCC34CCCN3CCC4)nc12 [Example 213]
Key: 7.25

Exercise: Fill in the recorded IC50 for this compound, with KRas G12S (Homo sapiens, UniProt P01116, G12S) as test system: NS(=O)(=O)CC1CCCN(c2nc(OCC34CCCN3CCC4)nc3c(F)c(-c4cccc5ccccc45)ncc23)C1 (stereo not drawn) [Example 436]
Key: 0.217

Exercise: Fill in the recorded IC50 for this compound, with KRas G12S (Homo sapiens, UniProt P01116, G12S) as test system: Fc1c(-c2cccc3cccc(F)c23)ncc2c(NCCc3ccn[nH]3)nc(OCC34CCCN3CCC4)nc12 [Example 215]
Key: 23.5

Exercise: Fill in the recorded IC50 for this compound, with KRas G12S (Homo sapiens, UniProt P01116, G12S) as test system: Cc1cc(N)nc(-c2ncc3c(N4CCC[C@@](C)(O)C4)nc(OC[C@@H]4CCCN4C)nc3c2F)c1C(F)(F)F [Example 435]
Key: 5.64

Exercise: Fill in the recorded IC50 for this compound, with KRas G12S (Homo sapiens, UniProt P01116, G12S) as test system: Oc1cccc2c1CN(c1nc(OCC34CCCN3CCC4)nc3c(F)c(-c4cccc5cccc(F)c45)ncc13)C2 [Example 120]
Key: 85.3

Exercise: Fill in the recorded IC50 for this compound, with KRas G12S (Homo sapiens, UniProt P01116, G12S) as test system: Fc1c(-c2cccc3cccc(F)c23)ncc2c(N3C[C@@H]4CC[C@@H](C4)C3)nc(OCC34CCCN3CCC4)nc12 [Example 18]
Key: 4.98
